- Tested on: dsDNA
- assay text: Binding affinity to double stranded DNA ssab (unknown origin) at 20 uM by UV-Visible absorption spectroscopic analysis
- Assay type: nucleic-acid assay
Calls of active or inactive are those of the source. The calls are words filed in the database; no cut-off is given here.
Please reply with one of these outcomes: active, inactive

What is the recorded call for this molecule in the test? COc1ccc2cc3[n+](cc2c1OC)CCc1cc2c(cc1-3)OCO2
inactive

What is the recorded call for this molecule in the test? COc1cc2c[n+](C)c3c4cc5c(cc4ccc3c2cc1OC)OCO5
active

What is the recorded call for this molecule in the test? COc1ccc2c(c[n+](C)c3c4cc5c(cc4ccc23)OCO5)c1OC
active

What is the recorded call for this molecule in the test? C[n+]1cc2c3c(ccc2c2ccc4cc5c(cc4c21)OCO5)OCO3
active

What is the recorded call for this molecule in the test? c1c2c(cc3c1OCO3)-c1cc3ccc4c(c3c[n+]1CC2)OCO4
inactive

###

- target of assay: dsDNA
- assay text: Binding affinity to double stranded DNA AT9 (unknown origin) incubated for 0.5 hrs in presence of different concentration DNA by fluorescence spectra analysis
- Assay type: nucleic-acid assay
measurement kind: EC50 (µM)
Numeric only. Scale: µM

Tell us which EC50 value is on record for c1c2c(cc3c1OCO3)-c1cc3ccc4c(c3c[n+]1CC2)OCO4 [COPTISINE]
7.12

###

- System: Quadruplex DNA
- assay text: Binding affinity to human G4-quadruplex Pu27 DNA 5'- TGGGGAGGGTGGGGAGGGTGGGGAAGG-3' at 20 uM by UV-Visible absorption spectroscopic analysis
- Assay type: nucleic-acid assay
The source made the active and inactive calls. The calls are words filed in the database; no cut-off is given here.
measurement kind: Activity

Solved cases (4 shown):
{"smiles data": "C[n+]1cc2c3c(ccc2c2ccc4cc5c(cc4c21)OCO5)OCO3", "result": "Active"}
{"smiles data": "c1c2c(cc3c1OCO3)-c1cc3ccc4c(c3c[n+]1CC2)OCO4", "result": "Active"}
{"smiles data": "COc1cc2c[n+](C)c3c4cc5c(cc4ccc3c2cc1OC)OCO5", "result": "Active"}
{"smiles data": "COc1ccc2cc3[n+](cc2c1OC)CCc1cc2c(cc1-3)OCO2", "result": "Active"}

From here, focus on the item given below.
Tell us which Activity value is on record for COc1ccc2c(c[n+](C)c3c4cc5c(cc4ccc23)OCO5)c1OC
Active

###

Exercise: for every item that follows, state its recorded pEC50.
- target of assay: dsDNA
- assay text: Binding affinity to double stranded DNA AT15-6AT (unknown origin) incubated for 0.5 hrs in presence of different concentration DNA by fluorescence spectra analysis
- Format: nucleic-acid assay
Please express pEC50 as -log10 of the molar concentration.

Provide dsDNA pEC50 reading for COc1ccc2c(c[n+](C)c3c4cc5c(cc4ccc23)OCO5)c1OC .
5.96

Provide dsDNA pEC50 reading for COc1ccc2cc3[n+](cc2c1OC)CCc1cc2c(cc1-3)OCO2 .
6.40

Provide dsDNA pEC50 reading for C[n+]1cc2c3c(ccc2c2ccc4cc5c(cc4c21)OCO5)OCO3 .
5.91

Provide dsDNA pEC50 reading for c1c2c(cc3c1OCO3)-c1cc3ccc4c(c3c[n+]1CC2)OCO4 .
5.09

###

- target of assay: dsDNA
- assay text: Binding affinity to double stranded DNA ssab3 (unknown origin) incubated for 0.5 hrs in presence of different concentration DNA by fluorescence spectra analysis
- Assay type: nucleic-acid assay
measurement kind: EC50 (nM)
Numeric only. Scale: nM

Tell us which EC50 value is on record for COc1ccc2c(c[n+](C)c3c4cc5c(cc4ccc23)OCO5)c1OC
1290

Tell us which EC50 value is on record for C[n+]1cc2c3c(ccc2c2ccc4cc5c(cc4c21)OCO5)OCO3
1480

Tell us which EC50 value is on record for c1c2c(cc3c1OCO3)-c1cc3ccc4c(c3c[n+]1CC2)OCO4
5840

Tell us which EC50 value is on record for COc1ccc2cc3[n+](cc2c1OC)CCc1cc2c(cc1-3)OCO2
230
